test: Aqueous kinetic solubility in PBS pH 7.4; type: physicochemical; settings: phosphate-buffered saline (PBS), 25 °C, pH 7.4, aqueous buffer, kinetic from dmso stock; Table 9; read-out: Aq. Skin
Measured parameter: solubility kinetic at 24 h (µM)
// units = µM; emit number, no label

Take a look at these entries with their results.
1) CCCS(=O)(=O)c1ccccc1C(=O)N1CCN(c2nc3ccc(F)c(F)c3s2)C[C@@H]1C    8
2) CCS(=O)(=O)c1ccccc1C(=O)N1CCN(c2nc3ccc(F)c(F)c3s2)C[C@@H]1C    1

Proceed to the following item.
get_value(item= `C[C@H]1CN(c2nc3ccc(F)c(F)c3s2)CCN1C(=O)c1ccccc1S(=O)(=O)C1CC1` , readout=solubility kinetic at 24 h) returns 14

###

Examples of compounds with documented solubility kinetic at 24 h follow.
test: Aqueous kinetic solubility in PBS pH 7.4; type: physicochemical; conditions: phosphate-buffered saline (PBS) pH 7.4, 25 °C, pH 7.4, aqueous buffer, kinetic from dmso stock; Table 9; read-out: Aq. Skin
// units = µM; emit number, no label

Take a look at these entries with their results.
1) CCS(=O)(=O)c1ccccc1C(=O)N1CCN(c2nc3ccc(F)cc3o2)C[C@@H]1C [Compound 26]    6
2) CCS(=O)(=O)c1ccccc1C(=O)N1CCN(c2nc3ccc(F)c(F)c3s2)CC1 [Cmpd 35]    7

get_value(item= CCCS(=O)(=O)c1ccccc1C(=O)N1CCN(c2nc3ccc(F)cc3o2)C[C@@H]1C [Compound 28] , readout=solubility kinetic at 24 h) returns 45

get_value(item= C[C@H]1CN(c2nc3ccc(F)cc3o2)CCN1C(=O)c1ccccc1S(=O)(=O)C1CC1 [Compound 27] , readout=solubility kinetic at 24 h) returns 124

###

assay: Pharmacokinetics study in mice; type: in vivo, mouse; conditions: C57B6/J, 30 mg/kg; C57 mouse, po 30 mpk, plasma
Measured parameter: Tmax (min)
// units = min; emit number, no label

get_value(item= CCS(=O)(=O)c1ccccc1C(=O)N1CCN(c2nc3ccc(F)cc3s2)C[C@@H]1C [Compound 8] , readout=Tmax) returns 15

###

test: In vitro metabolic stability, mouse liver microsomes; format: in vitro ADME; design: dose or concentration left out as unconfirmed; settings: pH 7.4, read-out: m-LM stab. t1/2
Measured parameter: half-life

Take a look at these entries with their results.
1) CCS(=O)(=O)c1ccccc1C(=O)N1CCN(c2nc3ccccc3o2)CC1 [Cmpd 6]    0.45 h
2) CCCS(=O)(=O)c1ccccc1C(=O)N1CCN(c2nc3ccc(F)cc3s2)CC1 [Compound 11]    > 1 h

get_value(item= O=C(c1ccccc1S(=O)(=O)C1CC1)N1CCN(c2nc3ccc(F)cc3s2)CC1 [Compound 22] , readout=half-life) returns > 1 h

get_value(item= CCS(=O)(=O)c1ccccc1C(=O)N1CCN(c2nc3cccc(F)c3s2)CC1 [Compound 9] , readout=half-life) returns 0.267 h

get_value(item= CCS(=O)(=O)c1ccccc1C(=O)N1CCN(c2nc3c(F)cccc3s2)CC1 [Compound 8] , readout=half-life) returns 0.267 h

get_value(item= CCS(=O)(=O)c1ccccc1C(=O)N1CCN(c2nc3ccc(F)cc3s2)CC1 [Cmpd 1] , readout=half-life) returns > 1 h

get_value(item= CCCS(=O)(=O)c1ccccc1C(=O)N1CCN(c2nc3ccc(F)c(F)c3s2)C[C@@H]1C [Compound 37] , readout=half-life) returns > 1 h

get_value(item= CCS(=O)(=O)c1ccccc1C(=O)N1CCN(c2nc3ccc(F)c(F)c3s2)C[C@@H]1C [Compound 36] , readout=half-life) returns > 1 h
